Assay: qHTS assay to identify small molecule agonists of the retinoic acid receptor (RAR) signaling pathway (AID 1159553)
Conditions: C3RL4 RARE luciferase reporter, agonist, 6 h; series mostly up to 73.3 µM
Results filed as inconclusive are left out. Activity calls are given as the source filed them. The call rests on the fitted dose curve; in most records, active means well fitted activation curve with a large enough effect in the repeat runs; inconclusive means weak or mixed curves, or effect the other way; inactive means no such curve, though single readings can be large or run the other way.
MEASURED_PROPERTY: outcome

>>> result("C=C(C)C(=O)OCC(CC)CCCC (stereo not drawn)")
"inactive"
>>> result("C=CC(=O)OCCCCCC(C)C")
"inactive"
>>> result("Cc1cccc(C)c1NC(=O)CN1CCCC1=O")
"inactive"
>>> result("COC(C)(C)CCCC(C)C/C=C/C(C)=C/C(=O)OC(C)C (stereo not drawn)")
"inactive"
>>> result("CCCCCCCCCCCCCCCCCC(=O)O")
"inactive"
>>> result("C=CC(=O)OCC(CC)CCCC (stereo not drawn)")
"inactive"
>>> result("[N-]=[N+]=CC(=O)OC[C@H](N)C(=O)O")
"inactive"
>>> result("CN(C)C(=O)Cl")
"inactive"
